Target: Rbm38-FF (Mus musculus, UniProt Q62176 1-237)
Sequence: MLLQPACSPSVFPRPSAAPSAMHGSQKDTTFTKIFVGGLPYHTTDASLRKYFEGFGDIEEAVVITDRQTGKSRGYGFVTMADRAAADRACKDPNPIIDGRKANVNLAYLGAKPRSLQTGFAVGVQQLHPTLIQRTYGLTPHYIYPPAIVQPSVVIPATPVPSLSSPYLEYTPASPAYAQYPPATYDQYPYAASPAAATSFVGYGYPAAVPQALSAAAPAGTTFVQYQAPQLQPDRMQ
Assay: SELEX-Seq; 16 mM HEPES pH 7.9, 150 mM KCl, 2 mM MgCl2, 60 uM EDTA, 1 mM DTT, 6% glycerol, 0.01 ug/uL heparin, 0.15 mM PMSF, 0.2 U/uL SUPERase-In, room temperature, 30 min; high values mean tight binding
Details: protein: recombinant; tags: C-terminal 2xFLAG with TEV remnant (SBP removed by TEV cleavage); ssRNA
observed property: binding signal

The recorded binding signal for entry GUGUGUU equals 0.0136 fraction of reads

Lab note: measured binding signal of GUGUGUG was 0.016 fraction of reads

For reference, reported binding signal for GUUUGUG stands at 0.00579 fraction of reads

Value of measured binding signal for the entry UGUGUGC : 0.00732 fraction of reads

Documented binding signal of UGUGUUG : 0.00826 fraction of reads

Value of measured binding signal for the entry GGUGUGG : 0.00694 fraction of reads

binding signal recorded for this sequence, GUGUGGG , is 0.00755 fraction of reads

Lookup result for CAGUGUG ; measured binding signal: 0.00615 fraction of reads

Entry under test: UGCGUGU . Its binding signal was 0.00637 fraction of reads

binding signal measured on UGGUGUG = 0.00917 fraction of reads

For this sequence ( CGGUGUG ), measured binding signal is 0.00653 fraction of reads

Form: sequence = GUGCGUG ; binding signal = 0.0063 fraction of reads

Kindly note the recorded binding signal for UGUGGUG , which is 0.00628 fraction of reads

Entry GUUGUGU — recorded binding signal = 0.00961 fraction of reads

// binding signal value for GGGUGUG : 0.0067 fraction of reads

binding signal in this record for GUGUGCG : 0.00564 fraction of reads

# binding signal (sequence: GUGUUUG ) is 0.00702 fraction of reads

In plain terms, UUUGUGU has a documented binding signal of 0.00629 fraction of reads

Measured binding signal, GUGUGUC : 0.00739 fraction of reads

# binding signal (sequence: GUGGUGU ) is 0.00782 fraction of reads

The measured binding signal associated with UGUGUGU reads 0.0159 fraction of reads

Data point: UUGUGUU ; binding signal = 0.00601 fraction of reads

The measured binding signal associated with AUGUGUG reads 0.00771 fraction of reads

// field: binding signal; key: GGCGUGU ; value = 0.00692 fraction of reads
